From: patent US20240018502A1

Target: plasma purified human complement protein C3 (human) (UniProt P01024)
Sequence (P01024 23-667, chain 1 of 2): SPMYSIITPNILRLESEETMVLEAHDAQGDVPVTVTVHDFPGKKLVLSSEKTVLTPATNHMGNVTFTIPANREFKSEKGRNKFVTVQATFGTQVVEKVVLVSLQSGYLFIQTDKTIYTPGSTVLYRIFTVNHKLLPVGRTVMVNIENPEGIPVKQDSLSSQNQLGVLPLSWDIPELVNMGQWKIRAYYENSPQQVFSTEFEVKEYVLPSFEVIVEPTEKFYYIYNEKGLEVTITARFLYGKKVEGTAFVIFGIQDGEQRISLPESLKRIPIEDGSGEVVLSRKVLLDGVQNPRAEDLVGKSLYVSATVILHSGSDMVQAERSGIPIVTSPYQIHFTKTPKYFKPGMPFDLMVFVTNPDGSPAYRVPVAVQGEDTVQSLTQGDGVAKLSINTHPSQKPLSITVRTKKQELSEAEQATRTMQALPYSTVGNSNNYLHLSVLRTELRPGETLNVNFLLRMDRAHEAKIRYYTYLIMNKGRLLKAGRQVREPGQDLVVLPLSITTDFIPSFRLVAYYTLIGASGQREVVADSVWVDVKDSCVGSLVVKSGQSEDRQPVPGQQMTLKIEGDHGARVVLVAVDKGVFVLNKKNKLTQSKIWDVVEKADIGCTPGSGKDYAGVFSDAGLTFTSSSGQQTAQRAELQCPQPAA
Sequence (P01024 672-1663, chain 2 of 2): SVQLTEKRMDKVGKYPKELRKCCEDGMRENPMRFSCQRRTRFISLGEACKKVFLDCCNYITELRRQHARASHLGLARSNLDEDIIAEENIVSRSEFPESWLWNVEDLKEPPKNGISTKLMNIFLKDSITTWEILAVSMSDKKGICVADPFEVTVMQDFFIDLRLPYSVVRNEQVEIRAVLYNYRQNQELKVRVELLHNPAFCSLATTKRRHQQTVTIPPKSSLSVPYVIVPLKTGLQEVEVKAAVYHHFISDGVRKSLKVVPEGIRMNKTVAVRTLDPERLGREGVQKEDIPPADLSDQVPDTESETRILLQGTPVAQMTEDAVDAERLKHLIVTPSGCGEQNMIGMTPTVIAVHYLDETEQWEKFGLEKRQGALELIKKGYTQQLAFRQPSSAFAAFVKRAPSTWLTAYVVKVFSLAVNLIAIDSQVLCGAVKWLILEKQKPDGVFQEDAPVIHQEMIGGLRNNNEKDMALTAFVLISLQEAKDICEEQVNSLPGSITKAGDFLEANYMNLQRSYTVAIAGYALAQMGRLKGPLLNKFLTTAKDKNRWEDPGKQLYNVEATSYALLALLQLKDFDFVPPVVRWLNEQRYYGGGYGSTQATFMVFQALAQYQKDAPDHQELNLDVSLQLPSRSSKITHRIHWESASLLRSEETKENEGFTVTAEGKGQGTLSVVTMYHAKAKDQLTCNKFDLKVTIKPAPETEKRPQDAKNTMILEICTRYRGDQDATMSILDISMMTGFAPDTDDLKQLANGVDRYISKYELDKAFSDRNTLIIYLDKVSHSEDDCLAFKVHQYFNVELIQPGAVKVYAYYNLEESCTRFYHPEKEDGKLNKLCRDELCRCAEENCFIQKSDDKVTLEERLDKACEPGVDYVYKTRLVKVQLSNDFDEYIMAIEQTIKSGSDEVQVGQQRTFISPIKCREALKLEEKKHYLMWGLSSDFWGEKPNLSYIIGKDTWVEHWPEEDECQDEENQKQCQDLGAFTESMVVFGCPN
Assay comment: cell-based or functional assay
Give EC50 of hC3 cleavage for every item shown.
Answer format: numeric, nM implied, no suffix.

Task item: Entry MTSP-1 Q38H/I41A/D60bV/F60eR/Y60gW/D96S/ins97aR/F97A/T98S/F99L/C122S/G151N/Q175L/Q192T (enzyme) VVGGTDADEGEWPWQVSLHALGHGHACGASLISPNWLVSAAHCYIDVRGRRWSDPTQWTAFLGLHDQSQRSAPGVQERRLKRIISHPFFNSARSLDYDIALLELEKPAEYSSMVRPISLPDASHVFPAGKAIWVTGWGHTQYGGTNALILQKGEIRVINQTTCENLLPQLITPRMMCVGFLSGGVDSCTGDSGGPLSSVEADGRIFQAGVVSWGDGCAQRNKPGVYTRLPLFRDWIKENTGV : reported EC50 of hC3 cleavage = ?
Reply: 2.07

Task item: Entry MTSP-1 Q38L/I41T/D60bA/F60eL/ins97aV/F97D/T98P/F99L/C122S/G151H/Q175M/Q192T (enzyme) VVGGTDADEGEWPWQVSLHALGLGHTCGASLISPNWLVSAAHCYIDARGLRYSDPTQWTAFLGLHDQSQRSAPGVQERRLKRIISHPFFNDDVPLDYDIALLELEKPAEYSSMVRPISLPDASHVFPAGKAIWVTGWGHTQYGGTHALILQKGEIRVINQTTCENLLPQMITPRMMCVGFLSGGVDSCTGDSGGPLSSVEADGRIFQAGVVSWGDGCAQRNKPGVYTRLPLFRDWIKENTGV : reported EC50 of hC3 cleavage = ?
Reply: 20.2

Task item: Entry MTSP-1 Q38H/I41A/D60bA/F60eR/F97T/ins97aE/T98G/F99L/C122S/Q175L/Q192E (enzyme) VVGGTDADEGEWPWQVSLHALGHGHACGASLISPNWLVSAAHCYIDARGRRYSDPTQWTAFLGLHDQSQRSAPGVQERRLKRIISHPFFNDTEGLDYDIALLELEKPAEYSSMVRPISLPDASHVFPAGKAIWVTGWGHTQYGGTGALILQKGEIRVINQTTCENLLPQLITPRMMCVGFLSGGVDSCEGDSGGPLSSVEADGRIFQAGVVSWGDGCAQRNKPGVYTRLPLFRDWIKENTGV : reported EC50 of hC3 cleavage = ?
Reply: 12

Task item: Entry MTSP-1 Q38S/I41S/F60eR/F97T/ins97aE/T98G/F99L/C122S/G151N/Q175L/Q192S (enzyme) VVGGTDADEGEWPWQVSLHALGSGHSCGASLISPNWLVSAAHCYIDDRGRRYSDPTQWTAFLGLHDQSQRSAPGVQERRLKRIISHPFFNDTEGLDYDIALLELEKPAEYSSMVRPISLPDASHVFPAGKAIWVTGWGHTQYGGTNALILQKGEIRVINQTTCENLLPQLITPRMMCVGFLSGGVDSCSGDSGGPLSSVEADGRIFQAGVVSWGDGCAQRNKPGVYTRLPLFRDWIKENTGV : reported EC50 of hC3 cleavage = ?
Reply: 6.26

Task item: Entry MTSP-1 Q38H/I41S/D60bT/F60eS/Y60gW/D96K/F97G/ins97aV/T98P/C122S/G151H/Q175L/Q192D (enzyme) VVGGTDADEGEWPWQVSLHALGHGHSCGASLISPNWLVSAAHCYIDTRGSRWSDPTQWTAFLGLHDQSQRSAPGVQERRLKRIISHPFFNKGVPFDYDIALLELEKPAEYSSMVRPISLPDASHVFPAGKAIWVTGWGHTQYGGTHALILQKGEIRVINQTTCENLLPQLITPRMMCVGFLSGGVDSCDGDSGGPLSSVEADGRIFQAGVVSWGDGCAQRNKPGVYTRLPLFRDWIKENTGV : reported EC50 of hC3 cleavage = ?
Reply: 18.3
